Taken from the supplement of paper PMC9663587.

tested on: MCF12A; assay: GRmax, 72 h; higher = less effect;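 also: breast cell lines in 384-well plates, nine doses across a 10^4 range, Dye Drop imaging of viable cells vs DMSO and time-zero plates, GR 0 means no net growth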
Hi, to clarify the labels: label 1 covers GRmax, 72 h from 0.4 GR upward, label 0 covers anything below 0.4 GR.

Previously resolved entries follow.
INSERT INTO measurements (compound, system, group_label) VALUES
  ('CN1CCN(CCOc2cc(OC3CCOCC3)c3c(Nc4c(Cl)ccc5c4OCO5)ncnc3c2)CC1 [Saracatinib/AZD0530] (max 10 µM)', 'MCF12A', 'label 1'),
  ('C=CCn1c(=O)c2cnc(Nc3ccc(N4CCN(C)CC4)cc3)nc2n1-c1cccc(C(C)(C)O)n1 [AZD1775] (max 10 µM)', 'MCF12A', 'label 0'),
  ('Cc1cc(Nc2ncc(Cl)c(Nc3ccccc3S(=O)(=O)C(C)C)n2)c(OC(C)C)cc1C1CCNCC1 [Ceritinib/LDK378] (max 10 µM)', 'MCF12A', 'label 0'),
  ('Nc1ccc(-c2ccc3ncc4ccc(=O)n(-c5cccc(C(F)(F)F)c5)c4c3c2)cn1 [Torin2] (max 1 µM)', 'MCF12A', 'label 0'),
  ('O=C1NC(=NCc2cccs2)SC1=Cc1ccc2ncccc2c1 [R0-3306] (max 10 µM)', 'MCF12A', 'label 1'),
  ('CN1CCN(C(=O)c2ccc3cc(CCNc4ncnc5ccc(C#N)cc45)ccc3c2)CC1 [senexin b] (max 10 µM)', 'MCF12A', 'label 1');

Quick check: does CC(C)n1nc(-c2ccc3oc(N)nc3c2)c2c(N)ncnc21 [INK128/MLN0128] (max 3.162 µM) have GRmax, 72 h greater than or equal to 0.4 GR?
label 0

---

tested on: CAL51; test: area over the GR curve, 72 h; higher = more effect;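 also: Dye Drop or Deep Dye Drop imaging of viable cells in 384-well plates (Hoechst nuclei, LIVE/DEAD dye), nine half-log doses, GR normalized to DMSO controls and time-zero plates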
Hi, to clarify the labels: 1.0 covers area over the GR curve from 0.1 GR upward, 0.0 covers anything below 0.1 GR.

Previously resolved entries follow.
INSERT INTO assay_data (molecule, group_label) VALUES
  ('COc1cccc2c1C(=O)c1c(O)c3c(c(O)c1C2=O)C[C@@](O)(C(=O)CO)C[C@@H]3O[C@H]1C[C@H](N)[C@H](O)[C@H](C)O1 [Doxorubicin] (max 3.162 µM)', 1.0),
  ('CC(C)Nc1cc(-c2c[nH]c(C(=O)N[C@H](CO)c3cccc(Cl)c3)c2)c(Cl)cn1 [BVD523] (max 10 µM)', 0.0),
  ('CCOc1cc2ncc(C#N)c(Nc3ccc(OCc4ccccn4)c(Cl)c3)c2cc1NC(=O)/C=C/CN(C)C [Neratinib/HKI272] (max 3.162 µM)', 0.0),
  ('CCc1cnn2c(NCc3ccc[n+]([O-])c3)cc(N3CCCC[C@H]3CCO)nc12 (max 1 µM)', 1.0);

Quick check: does Nc1ccc(-c2ccc3ncc4ccc(=O)n(-c5cccc(C(F)(F)F)c5)c4c3c2)cn1 [Torin2] (max 1 µM) have area over the GR curve greater than or equal to 0.1 GR?
1.0

Quick check: does CN(C)C/C=C/C(=O)Nc1ccc(C(=O)N2CCC[C@@H](Nc3ncc(Cl)c(-c4c[nH]c5ccccc45)n3)C2)cc1 [THZ531] (max 1 µM) have area over the GR curve greater than or equal to 0.1 GR?
0.0

Quick check: does CN(C)C/C=C/C(=O)Nc1ccc(O[C@@H]2CCC[C@@H](Nc3ncc(Cl)c(-c4c[nH]c5ccccc45)n3)C2)cc1 [BSJ-01-175] (max 10 µM) have area over the GR curve greater than or equal to 0.1 GR?
1.0
